Values from patent US5444069A

Notes on pIC50 obtained with AT2 receptor (rabbit uterus receptor preparations) (Oryctolagus cuniculus).
Sequence (G1T351 1-363): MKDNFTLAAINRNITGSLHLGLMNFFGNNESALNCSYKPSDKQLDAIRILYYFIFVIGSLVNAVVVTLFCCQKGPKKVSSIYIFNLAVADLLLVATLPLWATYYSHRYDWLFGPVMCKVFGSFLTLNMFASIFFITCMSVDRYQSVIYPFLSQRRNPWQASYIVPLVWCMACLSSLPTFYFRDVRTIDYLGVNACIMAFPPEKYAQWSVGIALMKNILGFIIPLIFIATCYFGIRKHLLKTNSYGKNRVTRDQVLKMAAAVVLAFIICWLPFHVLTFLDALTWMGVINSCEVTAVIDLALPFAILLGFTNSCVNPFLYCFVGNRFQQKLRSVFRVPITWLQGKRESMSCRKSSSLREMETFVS
pIC50: −log10 of the molar value.
MEASURE: pIC50

| SMILES_STRING | MEASURE | OBSERVED_RESULT |
| --- | --- | --- |
| Cc1cc(Cn2cnc3c2C[C@@H](C(=O)O)N(C(=O)C(c2ccccc2)c2ccccc2)C3)ccc1[N+](=O)[O-] | pIC50 | 7.17 |
| COc1ccc(Cn2cnc3c2C[C@@H](C(=O)O)N(C(=O)C(c2ccccc2)c2ccccc2)C3)cc1C | pIC50 | 7.59 |
| COc1ccc(Cn2cnc3c2C[C@@H](C(=O)O)N(C(=O)C2c4ccccc4-c4ccccc42)C3)cc1C | pIC50 | 5.92 |
| CC(=O)Nc1ccc(Cn2cnc3c2C[C@@H](C(=O)O)N(C(=O)C(c2ccccc2)c2ccccc2)C3)cc1C | pIC50 | 6.82 |
